Test system: CCRF-CEM leukemia
procedure_details: NCI tumour cell line growth inhibition, 48 h
measured_metric: TGI

# molecule, data_value
rows = [
    ("CC1(C)O[C@@H]2[C@@H]3OC(=O)C[C@@H]3[C@@H](COCc3ccccc3)[C@@H]2O1", "> 100 µM"),
    ("CC(Oc1ccc2cc(C(=O)c3ccccc3)c(=O)oc2c1)C(=O)O (centres undefined)", "> 100 µM"),
    ("Cc1nn(-c2ccc(Br)cc2)c(C)c1CC(=O)c1cc(O)ccc1O", "> 50 µM"),
    ("O=C(O)/C=C\\C(=O)Nc1ccc2c(c1)C(=O)c1cc(F)ccc1-2", "> 100 µM"),
    ("COC(=O)c1ccc(C2SCC(=O)N2NC(=O)C(O)c2ccccc2)cc1 (centres undefined)", "> 100 µM"),
    ("C=C1C(=O)OC2/C=C(\\C)C3OC3/C=C(/C(=O)OC)C(OC(C)=O)C(OC(=O)C(C)(O)C(C)OC(C)=O)C12 (centres undefined)", "3.04 µM"),
    ("Cc1cc2[nH]c3c(C#N)c(-c4ccccc4)c(CN4CCOCC4)c(=O)n3c2cc1C", "> 100 µM"),
    ("COC(Cc1ccccc1)NC(C)=O (centres undefined)", "> 100 µM"),
    ("CC(=O)O[C@H]1[C@@H](N2CCN(C)CC2)C[C@H]2[C@@H]3CC=C4C[C@@H](N5CCCC5)CC[C@]4(C)[C@H]3CC[C@@]21C", "> 100 µM"),
]

* * *

# Lookup of reported TGI keyed by entry
System: EKVX NSCLC
procedure_details: NCI tumour cell line growth inhibition, 48 h
measured_metric: TGI

# molecule, data_value
rows = [
    ("O=C1c2ccccc2C(=O)c2c1ccc1c2OCO1", "> 100 µM"),
    ("CP(C)(=S)P(C)(C)=S", "> 100 µM"),
    ("CC[C@]12CCCN3CC[C@]4(C(=C(C(=O)OC)C1)Nc1ccccc14)[C@@H]32", "63.1 µM"),
    ("CC([O-])C(=O)[O-].NCC1CCC1CN.[Pt+4] (centres undefined)", "> 10 µM"),
]

* * *

Test system: SNB-75 CNS
procedure_details: NCI tumour cell line growth inhibition, 48 h

# molecule, TGI
measured = [
    ("CC(=O)O[C@H]1[C@@H](N2CCN(C)CC2)C[C@H]2[C@@H]3CC=C4C[C@@H](N5CCCC5)CC[C@]4(C)[C@H]3CC[C@@]21C", "> 100 µM"),
    ("N=c1oc2c(Cl)cc(Cl)cc2cc1C(=O)Nc1ccccn1", "46.1 µM"),
    ("COC1(C)C=NCC(C)(C)NC(=O)C(C)(OC)C=NCC(C)(C)NC1=O (stereo not given)", "> 10 µM"),
    ("CC(C)=CCC[C@H](C)[C@H]1CC[C@@H](C)c2cc(O)c(C)cc21", "38.6 µM"),
    ("O=C(/C(=C/c1cccs1)c1ccccc1)c1ccccc1", "> 100 µM"),
]

* * *

Tested on: HL-60(TB) leukemia
procedure_details: NCI tumour cell line growth inhibition, 48 h
measured_metric: TGI (µM)

# compound, unit_of_measure, value_modifier, data_value
data = [
    ("COc1ccc(CC2C3=C(CCCC3)CCN2C)cc1 (centres undefined)", "µM", ">", 100),
    ("C[C@]12CC[C@H]3[C@@H](C[C@@H]4N=C(c5ccc(O)cc5)S[C@@]45C[C@H](O)CC[C@]35C)[C@@H]1CC[C@@H]2O", "µM", ">", 100),
    ("COc1cc(NC(N)=NCCC(C)(C)c2ccc(C(F)(F)F)cc2)ncc1C#N", "µM", "=", 0.868),
    ("CCN1CCN(C(=O)[C@]23CCC(C)(C)C[C@@H]2C2=CC[C@@H]4[C@@]5(C)C/C(=C/c6cccnc6)C(=O)C(C)(C)[C@@H]5CC[C@@]4(C)[C@]2(C)CC3)CC1", "µM", "=", 3.34),
    ("Cc1cc(NCCCCCCNc2cc(C)nc3ccc(Cl)cc23)c2cc(Cl)ccc2n1", "µM", "=", 47.8),
    ("NC[C@@](O)(c1ccc(Cl)cc1)c1ccc(-c2cn[nH]c2)cc1", "µM", "=", 4.13),
    ("CN(C)/C=N/S(=O)(=O)c1nn2c(C=O)c(-c3ccc(-c4ccc([N+](=O)[O-])cc4)o3)nc2s1", "µM", "=", 2.54),
    ("Cc1nn(-c2ccc(Br)cc2)c(C)c1CC(=O)c1cc(O)ccc1O", "µM", ">", 50),
    ("CCOC(=O)c1cc(-c2ccc(Cl)cc2)c([N+](=O)[O-])n1C", "µM", ">", 10),
]

* * *

System: HL-60(TB) leukemia
procedure_details: NCI tumour cell line growth inhibition, 48 h
Rule: TGI of 9 µM or more gives 1 (yes); anything lower gives 0 (no).

# molecule, category_label
records = [
    ("COc1ccc(/C=C/C(=O)c2ccc(Nc3ccnc4cc(Cl)ccc34)cc2)cc1", "1 (yes)"),
    ("CCc1ccc(Nc2cc(C)nc3nc(C)nn23)cc1", "1 (yes)"),
    ("O=c1/c(=C/c2ccc3c(c2)OCO3)sc2nnc(-c3ccco3)n12", "1 (yes)"),
    ("Cn1cnc([N+](=O)[O-])c1Sc1nc(N)nc2c1ncn2Cc1ccccc1", "1 (yes)"),
    ("CC[C@]12C=CCN3CCC4(c5cc([C@@]6(C(=O)OC)CC7CN(CCc8c6[nH]c6ccccc86)C[C@@H]6CCC[C@H]76)c(OC)cc5N(C)C4[C@](O)(C(=O)OC)C1OC(C)=O)C32 (stereo not given in full)", "0 (no)"),
    ("CCOC(=O)C1(Cc2ccccc2)Cc2ccccc2C1=O (stereo not given)", "1 (yes)"),
    ("[N-]=[N+]=NC1=C(c2ccccc2)C(=O)c2cccc3cccc1c23", "1 (yes)"),
    ("CC(C)(O)[C@H](CCO)O[Si](c1ccccc1)(c1ccccc1)C(C)(C)C", "1 (yes)"),
    ("O=C(Nc1ccc(Br)cc1F)c1cc(Br)ccc1O", "0 (no)"),
]

* * *

Tested on: U251 CNS
Outcomes: Y = active, N = inactive

# smiles, subject_of_test, category_label
rows = [
    ("CC[C@@]1(O)C(=O)OCc2c1cc1n(c2=O)Cc2c-1nc1ccccc1c2/C=N/OC(C)(C)C", "U251 CNS", "Y"),
    ("COc1cc(OC)cc(-c2cncn2-c2ccc(-c3nc4cc(OC)c(OC)c(OC)c4s3)cc2)c1", "U251 CNS", "N"),
    ("Nc1c(C(=O)Nc2ccccc2)sc2nc3c(cc12)CCCC3", "U251 CNS", "N"),
    ("CC/C=C\\C/C=C\\C[C@H]1C/C=C2/C(=O)C=C[C@H]2C/C=C\\CCC(=O)O1", "U251 CNS", "N"),
    ("COc1ccc(Nc2ncccc2C(=O)NCc2cn(Cc3cccc(Oc4ccccc4)c3)nn2)cc1", "U251 CNS", "N"),
    ("CC(C)Oc1ccc(C(=O)N[C@H](CNC(=O)CN(C)C)Cc2ccc(-c3cn4cccc([C@H](C)O)c4n3)cc2)cc1Cl", "U251 CNS", "Y"),
    ("C[C@]12CC[C@H]3[C@@H](C[C@@H]4N=C(c5ccc(O)cc5)S[C@@]45C[C@H](O)CC[C@]35C)[C@@H]1CC[C@@H]2O", "U251 CNS", "N"),
    ("Cc1ccc(S(=O)(=O)n2cc(-c3nnnn3-c3ccc(Cl)cc3)c(=O)c3ccccc32)cc1", "U251 CNS", "N"),
]

* * *

Test system: UACC-257 melanoma
procedure_details: NCI tumour cell line growth inhibition, 48 h
# Lookup of reported TGI keyed by entry

# compound, TGI
measured = [
    ("COc1cc(-c2cc(CCC(=O)Nc3ccccc3[N+](=O)[O-])n(-c3ccc([N+](=O)[O-])cc3[N+](=O)[O-])n2)ccc1O", "> 10 µM"),
    ("CNC1C(OC2C(OC3C(O)C(O)C(O)C(O)C3O)OC(C)C2(O)CO)OC(CO)C(O)C1O (stereo not drawn) (tested in a mixture with another compound)", "> 100 µM"),
    ("CC[C@]12CCCN3CC[C@]4(C(=C(C(=O)OC)C1)Nc1ccccc14)[C@@H]32", "42.2 µM"),
    ("CC1Cc2cc(O)ccc2C2[C@@H]1C1CC[C@H](O)[C@@]1(C)C[C@@H]2O[N+](=O)[O-] (stereo partly drawn)", "72.3 µM"),
    ("C=C(C(=O)O)[C@@H]1C[C@@H]2O[C@H]1CC(C)=CCC/C(C)=C/CC[C@@]2(C)O", "> 100 µM"),
    ("O=C(O)C(F)(OC(F)(F)C(F)(OC(F)(F)C(F)(F)C(F)(F)F)C(F)(F)F)C(F)(F)F (stereo not drawn)", "> 100 µM"),
    ("COc1cc(C2C(C#N)=C(N)Oc3cc(O)ccc32)cc(OC)c1OC (stereo not drawn)", "> 100 µM"),
    ("COc1cccc(-n2c(N)c(-c3nc4cc(C(F)(F)F)ccc4s3)c3ccc([N+](=O)[O-])cc3c2=O)c1", "> 100 µM"),
    ("CC(C)CC(=O)NS(=O)(=O)c1ccccc1", "> 100 µM"),
    ("C[n+]1ccc(-c2c3nc(c(-c4ccc5c(ccc[n+]5C)c4)c4ccc([nH]4)c(-c4cc[n+](C)cc4)c4nc(c(-c5ccc6c(ccc[n+]6C)c5)c5ccc2[nH]5)C=C4)C=C3)cc1", "48.5 µM"),
    ("CC(=O)OCC1OC(n2c(-c3ccccc3)c(C)c(C)c(C#N)c2=S)C(OC(C)=O)C(OC(C)=O)C1OC(C)=O (stereo not drawn)", "> 100 µM"),
    ("CC(C)(O)[C@H](CCO)O[Si](c1ccccc1)(c1ccccc1)C(C)(C)C", "29.7 µM"),
    ("CC1=CC2C(C(C)C)CC1C1C(=O)OC(=O)C21 (stereo not drawn)", "> 100 µM"),
    ("CC1=C(C(=O)Nc2ccccc2C)C(c2ccc(C3C(C(=O)Nc4ccccc4C)=CNC=C3C(=O)Nc3ccccc3C)cc2)C(C(=O)Nc2ccccc2C)=C(C)N1", "33.2 µM"),
    ("COc1ccc(-c2coc3cc(OC)cc(O)c3c2=O)cc1", "> 100 µM"),
    ("O=C1OC2C(O)C(=O)OC2C1O (stereo not drawn)", "> 100 µM"),
    ("O=C(/C(=C/c1cccs1)c1ccccc1)c1ccccc1", "> 100 µM"),
    ("O=C1c2ccccc2C(=O)c2c1ccc1c2OCO1", "> 100 µM"),
]

FYI, the data here is from PubChem BioAssay (NCI).
